Target: HRas^G12V (Homo sapiens (Human), UniProt P01112, G12V)
Sequence (P01112 1-166 G12V): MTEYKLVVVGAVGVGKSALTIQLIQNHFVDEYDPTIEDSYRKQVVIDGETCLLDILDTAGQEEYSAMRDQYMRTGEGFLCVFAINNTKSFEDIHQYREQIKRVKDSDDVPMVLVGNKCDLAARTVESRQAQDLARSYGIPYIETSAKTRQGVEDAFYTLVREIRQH
Assay: 19F DLB (ligand-observed 19F NMR) score
Type: binding
Design: scale not given here
Kindly supply the reported 19F DLB Score values for the records listed here.
One number for each entry.

These recorded examples may help you get a feel for the data.
O=C(c1ccc(F)cc1F)N1CCC(c2c[nH]c3cc(F)ccc23)CC1 [Compound 11026] :: 2.02
CCOC(=O)c1ccc(NC(=O)Cc2c[nH]c3cc(F)ccc23)c(C)c1 [Compound 10034] :: 1.6
COc1cccc(NC(=O)Cc2c[nH]c3cc(F)ccc23)c1 [Compound 10030] :: 3.05
O=C(c1ccccc1)N1CCC(c2c[nH]c3cc(F)ccc23)C1 (centres unmarked) [Compound 11021] :: 3.35
COC(C)C1CN(C(=O)Cc2c[nH]c3cc(F)ccc23)C1 (centres unmarked) [Compound 10124] :: 1.82
CC(=O)N1CCC[C@H](NC(=O)Cc2c[nH]c3cc(F)ccc23)C1 [Compound 10073] :: 1.17

Pending compound:
Task: Please indicate 19F DLB Score recorded for O=C(NCCc1c[nH]c2cc(F)ccc12)C1CCOC1 (centres unmarked) [Compound 10063]
Output: 1.1

---

Biological target: HRas^G12V (Homo sapiens (Human), UniProt P01112, G12V)
Assay: 19F T2-CPMG NMR score
Format: binding
Please enter T where 19F T2-CPMG Score is greater than or equal to 10, and F where it is lower.

O=C(Cc1c[nH]c2ccccc12)Nc1ccc(F)cc1 :: F

Could you now look at the following compound, please?
Task: Decide: is the reported value of 19F T2-CPMG Score for O=C(O)[C@H]1COCCN1C(=O)Cc1c[nH]c2cc(F)ccc12 equal to or greater than 10?
Output: F

---

Kindly supply the reported 19F T2-CPMG Score values for the records listed here.
Target: HRas^G12V (Homo sapiens (Human), UniProt P01112, G12V)
Assay: 19F T2-CPMG NMR score
Assay type: binding
Description: All NMR experiments were collected using 3 mm NMR tubes on a 600 MHz Bruker Avance III spectrometer equipped with a QCI helium cryoprobe and a SampleJet sample changer. The buffer used for NMR experiments was 25 mM sodium phosphate pH 7.4, 150 mM NaCl, 5 mM MgCl2, 1 mM TCEP-d16, 10% D2O. Data were processed using Bruker TopSpin. […]
One number for each entry.

These recorded examples may help you get a feel for the data.
CC(C)(CNC(=O)Cc1c[nH]c2cc(F)ccc12)C(=O)O :: 1.59
CN(C)CC(=O)Nc1ccccc1NC(=O)Cc1c[nH]c2cc(F)ccc12 :: 3.32
C[C@@H](NC(=O)Cc1c[nH]c2cc(F)ccc12)C(=O)O :: 2.8
O=C(O)C[C@@H](c1ccccc1F)c1c[nH]c2cc(F)ccc12 (single isomer, unassigned) :: 25.91
CC1CN(C(=O)C(CC(=O)O)c2c[nH]c3cc(F)ccc23)C1 (stereo not drawn) :: 39.41

Batch of 5 compounds: report 19F T2-CPMG Score for each.
1. COC(=O)[C@@H]1CN(C(=O)Cc2c[nH]c3cc(F)ccc23)CCN1C
2. O=C(C1CCC(O)CC1)N1CCC(c2c[nH]c3cc(F)ccc23)C1 (stereo not drawn)
3. O=C(Cc1c[nH]c2cc(F)ccc12)N1CCO[C@H](CO)C1
4. CCOC(=O)[C@@H]1CCCN(C(=O)Cc2c[nH]c3cc(F)ccc23)C1
5. CC(=O)N1CCN(C(=O)Cc2c[nH]c3cc(F)ccc23)CC1

Output:
7.3
12.9
12.46
7.87
12.69

Task: Enter 19F T2-CPMG Score (test system HRas^G12V (Homo sapiens (Human), UniProt P01112, G12V)) for CC(C)(C)OC(=O)N1CCC(C(=O)N2CCC(c3c[nH]c4cc(F)ccc34)CC2)C1 (stereo not drawn)
Output: 16.89
